Sourced from ChEMBL document CHEMBL1201862

# Tested on: SN12C
# PROCEDURE TEXT: NCI tumour cell line growth inhibition, 48 h
Active and inactive are the calls of the source. Rule as the data show it: active = GI50 up to about 1.1 µM and inactive = higher.
QUANTITY MEASURED: GI50

> print(dat)
                                   compound  quantity.measured               result
1   CCCCCCCCCCCCCC/C(C(=O)OC)=C(/O)C(=O)OCC               GI50  > 100 µM (inactive)
2  NC(CCCNc1cccc(O)c1)C(=O)O (stereo unspecified)               GI50  > 100 µM (inactive)
3        COC(=O)C(C#N)=C1c2ccccc2Oc2ccccc21               GI50   38.9 µM (inactive)
4   CCC(=O)NC(Nc1ccccc1F)(C(F)(F)F)C(F)(F)F               GI50  > 100 µM (inactive)
5  Cn1c2c(c3ccccc31)CCN1C(=O)CN(C(=O)C3CCCCC3)CC21 (stereo unspecified)               GI50  > 100 µM (inactive)
6  CCOC(=O)C1=CC(C)(C(=O)OCC)Nc2c(nc(SC)n(C)c2=O)N1 (stereo unspecified)               GI50   > 10 µM (inactive)

----------
# Tested on: OVCAR-4
# PROCEDURE TEXT: NCI tumour cell line growth inhibition, 48 h
Calls of active or inactive are those of the source. Rule as the data show it: active = GI50 up to about 1.1 µM and inactive = higher.
QUANTITY MEASURED: GI50

> print(dat)
                                 cpd.smiles  assay.system               result
1  CC1=C(c2cc(C(=O)Nc3ccc(Cl)cc3)nc(S)n2)Sc2ccccc2N1       OVCAR-4  > 100 µM (inactive)
2  COc1cc2c(cc1OCCCCCOc1cc3c(cc1OC)C(=O)N1CCC[C@H]1CN3)N=C[C@@H]1CCCN1C2=O       OVCAR-4   25.6 µM (inactive)
3                     C1=Nc2ccccc2Cn2nncc21       OVCAR-4  > 100 µM (inactive)
4    N=C(N)N/N=C/c1nc2n(c1[N+](=O)[O-])CCS2       OVCAR-4   16.2 µM (inactive)
5  N[C@@H](Cc1ccccc1)C(=O)N1CCC[C@@H]1P(=O)(Oc1ccccc1)Oc1ccccc1       OVCAR-4  > 100 µM (inactive)

----------
Each entry below lists one item and its recorded GI50 value.
# System: RPMI-8226
# PROCEDURE TEXT: NCI tumour cell line growth inhibition, 48 h
The source made the active and inactive calls. No stated cut-off is given here; in the data, active = GI50 up to about 1.1 µM and inactive = higher.
QUANTITY MEASURED: GI50

> print(dat)
                                    molecule  quantity.measured               result
 1           CCCNC(=S)N/N=C1\C(=O)Nc2ccccc21               GI50  > 100 µM (inactive)
 2         O=S1(=O)C(c2ccccc2)=C(O)c2ccccc21               GI50  > 100 µM (inactive)
 3        CNC(=S)N/N=C/c1ccc([N+](=O)[O-])s1               GI50   > 10 µM (inactive)
 4  Nc1ccn(C2OC(CO)C(O)C2O)c(=O)n1 (stereo not given)               GI50    337 µM (inactive)
 5  CCCCCCCCCCCCCCCCNc1ccn(C2CC(OP(=O)(O)OCC3OC(n4cc(CC)c(=O)[nH]c4=O)CC3O)C(CO)O2)c(=O)n1 (stereo not given)               GI50   17.8 µM (inactive)
 6  O=C1C(=O)N(c2ccc(Cl)cc2Cl)C(=O)C(=O)C1c1nc2ccccc2o1               GI50  > 100 µM (inactive)
 7  Cc1cc(NC(=O)C(=O)Cc2cnc3ccccc3n2)c(S(=O)(=O)O)cc1Cl               GI50  > 100 µM (inactive)
 8  CC1(C)C(O)c2ccccc2OC1N1CCN(C2Oc3ccccc3C(O)C2(C)C)CC1 (stereo not given)               GI50  > 100 µM (inactive)
 9              Cc1ccc(/C=C/C(=O)CCN(C)C)cc1               GI50   19.3 µM (inactive)
10  COc1ccc(-c2onc(-c3ccc([N+](=O)[O-])cc3)c2C2=NCCCN2)cc1               GI50  > 100 µM (inactive)
